- target_or_system: PKCθC1B T243A (Mus musculus, UniProt Q02111, T243A)
- test_protocol: [3H]PDBu binding assay
- condition_summary: read-out: PDBu Kd; PKCθ C1B T243A; mean ± S.E.M.
pKd: −log10 of the molar value.
measured_quantity: pKd

>  <compound>
CCCC(=O)O[C@@H]1[C@@H](C)[C@@]2(O)[C@@H](C=C(CO)C[C@]3(O)C(=O)C(C)=C[C@@H]23)[C@@H]2C(C)(C)[C@]12OC(=O)CCC [PDBu, phorbol 12,13-dibutyrate]

>  <recorded_number>
9.19

$$$$

* * *

- target_or_system: PKCθC1B Q258G (Mus musculus, UniProt Q02111, Q258G)
- test_protocol: [3H]PDBu binding assay
- condition_summary: PKCθ C1B Q258G; competition of [3H]PDBu binding; mean ± S.E.M.
pKi: −log10 of the molar value.
Some compounds, each annotated with its measured pKi.
measured_quantity: pKi

>  <compound>
CCCCC/C=C\C/C=C\C/C=C\C/C=C\CCCC(=O)OC(CO)COC(=O)CCCCCCCCCCCCCCCCC (centres unmarked)

>  <target_or_system>
PKCθC1B Q258G (Mus musculus, UniProt Q02111, Q258G)

>  <measured_quantity>
pKi

>  <recorded_number>
5.65

$$$$
>  <compound>
CCCCCCCC(=O)OC[C@H](CO)OC(=O)CCCCCCC

>  <target_or_system>
PKCθC1B Q258G (Mus musculus, UniProt Q02111, Q258G)

>  <measured_quantity>
pKi

>  <recorded_number>
5.74

$$$$

* * *

- target_or_system: PKCθC1B wild-type (Mus musculus, UniProt Q02111)

>  <molecule>
CCCC(=O)O[C@@H]1[C@@H](C)[C@@]2(O)[C@@H](C=C(CO)C[C@]3(O)C(=O)C(C)=C[C@@H]23)[C@@H]2C(C)(C)[C@]12OC(=O)CCC [PDBu, phorbol 12,13-dibutyrate]

>  <result_unit>
pM

>  <Kd>
390

$$$$

* * *

- target_or_system: PKCθC1B T243A (Mus musculus, UniProt Q02111, T243A)
- test_protocol: [3H]PDBu binding assay
- condition_summary: PKCθ C1B T243A; competition of [3H]PDBu binding; mean ± S.E.M.
# Ki annotations

>  <compound>
CCCCCCCC(=O)OC[C@H](CO)OC(=O)CCCCCCC

>  <Ki [nM]>
21.5

$$$$
>  <compound>
CCCCC/C=C\C/C=C\C/C=C\C/C=C\CCCC(=O)OC(CO)COC(=O)CCCCCCCCCCCCCCCCC (centres unmarked)

>  <Ki [nM]>
5.5

$$$$

* * *

Recorded Ki values for a group of compounds are listed next.
- target_or_system: PKCθC1B W253G (Mus musculus, UniProt Q02111, W253G)
- test_protocol: [3H]PDBu binding assay
- condition_summary: PKCθ C1B W253G; competition of [3H]PDBu binding; mean ± S.E.M.

>  <compound>
CCCCCCCC(=O)OC[C@H](CO)OC(=O)CCCCCCC [DOG, sn-1,2-dioctanoylglycerol]

>  <Ki, nM>
470

$$$$
>  <compound>
CCCCC/C=C\C/C=C\C/C=C\C/C=C\CCCC(=O)OC(CO)COC(=O)CCCCCCCCCCCCCCCCC (centres unmarked) [SAG, sn-1-stearoyl 2-arachidonyl glycerol]

>  <Ki, nM>
271

$$$$

* * *

- target_or_system: PKCθC1B wild-type (Mus musculus, UniProt Q02111)
pKi: −log10 of the molar value.
This listing pairs compounds with measured pKi.

>  <compound>
CCCCC/C=C\C/C=C\C/C=C\C/C=C\CCCC(=O)OC(CO)COC(=O)CCCCCCCCCCCCCCCCC (centres unmarked) [SAG, sn-1-stearoyl 2-arachidonyl glycerol]

>  <pKi>
8.06

$$$$
>  <compound>
CCCCCCCC(=O)OC[C@H](CO)OC(=O)CCCCCCC [DOG, sn-1,2-dioctanoylglycerol]

>  <pKi>
7.79

$$$$

* * *

- target_or_system: PKCθC1B L255G (Mus musculus, UniProt Q02111, L255G)
- test_protocol: [3H]PDBu binding assay
- condition_summary: PKCθ C1B L255G; competition of [3H]PDBu binding; mean ± S.E.M.
Reported Ki values follow for various compounds

>  <compound>
CCCCCCCC(=O)OC[C@H](CO)OC(=O)CCCCCCC [DOG, sn-1,2-dioctanoylglycerol]

>  <Ki [nM]>
76

$$$$
>  <compound>
CCCCC/C=C\C/C=C\C/C=C\C/C=C\CCCC(=O)OC(CO)COC(=O)CCCCCCCCCCCCCCCCC (centres unmarked) [SAG, sn-1-stearoyl 2-arachidonyl glycerol]

>  <Ki [nM]>
71

$$$$

* * *

- target_or_system: PKCθC1B Y239A (Mus musculus, UniProt Q02111, Y239A)
- test_protocol: [3H]PDBu binding assay
- condition_summary: read-out: PDBu Kd; PKCθ C1B Y239A; mean ± S.E.M.

>  <compound>
CCCC(=O)O[C@@H]1[C@@H](C)[C@@]2(O)[C@@H](C=C(CO)C[C@]3(O)C(=O)C(C)=C[C@@H]23)[C@@H]2C(C)(C)[C@]12OC(=O)CCC [PDBu, phorbol 12,13-dibutyrate]

>  <Kd / nM>
3.32

$$$$

* * *

- target_or_system: PKCθC1B W253G (Mus musculus, UniProt Q02111, W253G)
- test_protocol: [3H]PDBu binding assay
- condition_summary: read-out: PDBu Kd; PKCθ C1B W253G; mean ± S.E.M.
measured_quantity: Kd

>  <compound>
CCCC(=O)O[C@@H]1[C@@H](C)[C@@]2(O)[C@@H](C=C(CO)C[C@]3(O)C(=O)C(C)=C[C@@H]23)[C@@H]2C(C)(C)[C@]12OC(=O)CCC [PDBu, phorbol 12,13-dibutyrate]

>  <result>
2.95 nM

$$$$

* * *

Each entry below carries its recorded pKi.
- target_or_system: PKCθC1B Y239A (Mus musculus, UniProt Q02111, Y239A)
- Sequence (Q02111 232-281 Y239A): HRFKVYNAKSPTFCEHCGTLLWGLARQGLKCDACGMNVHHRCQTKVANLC
- test_protocol: [3H]PDBu binding assay
- condition_summary: PKCθ C1B Y239A; competition of [3H]PDBu binding; mean ± S.E.M.
pKi: −log10 of the molar value.
measured_quantity: pKi

>  <compound>
CCCCCCCC(=O)OC[C@H](CO)OC(=O)CCCCCCC

>  <measured_quantity>
pKi

>  <recorded_number>
7.07

$$$$
>  <compound>
CCCCC/C=C\C/C=C\C/C=C\C/C=C\CCCC(=O)OC(CO)COC(=O)CCCCCCCCCCCCCCCCC (centres unmarked)

>  <measured_quantity>
pKi

>  <recorded_number>
7.45

$$$$

* * *

- target_or_system: PKCθC1B L255G (Mus musculus, UniProt Q02111, L255G)
- Sequence (Q02111 232-281 L255G): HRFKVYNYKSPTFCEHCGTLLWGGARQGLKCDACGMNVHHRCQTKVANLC
- test_protocol: [3H]PDBu binding assay
- condition_summary: read-out: PDBu Kd; PKCθ C1B L255G; mean ± S.E.M.
pKd: −log10 of the molar value.
measured_quantity: pKd

>  <molecule>
CCCC(=O)O[C@@H]1[C@@H](C)[C@@]2(O)[C@@H](C=C(CO)C[C@]3(O)C(=O)C(C)=C[C@@H]23)[C@@H]2C(C)(C)[C@]12OC(=O)CCC [PDBu, phorbol 12,13-dibutyrate]

>  <target_or_system>
PKCθC1B L255G (Mus musculus, UniProt Q02111, L255G)

>  <measured_quantity>
pKd

>  <recorded_number>
8.35

$$$$
